# Test system: MDA-MB-231
# assay_procedure: NCI tumour cell line growth inhibition, 48 h
Calls of active or inactive are those of the source. Rule as the data show it: active = GI50 up to about 1.1 µM and inactive = higher.
measured_property: GI50

INSERT INTO results (compound, assay_value) VALUES
  ('CC(C)(C)C1CCC(=O)/C(=C/CC2CC(=O)N(c3ccccc3)C(=O)C2)C1 (stereo not given)', '44 µM (inactive)'),
  ('Cc1ccc2c(=O)cc(Cc3cccs3)[nH]c2n1', '> 100 µM (inactive)'),
  ('O=C(CN1CCN(Cc2ccccc2)CC1)N1CCCn2c1nc1ccccc1c2=O', '> 100 µM (inactive)'),
  ('CCOC(C)O[C@H]1C(=O)OCC1(C)C (stereo not given in full)', '> 100 µM (inactive)'),
  ('Cc1c(C)c(S(=O)(=O)N(CCCCN)OCCCN)c(C)c2c1OC(C)(C)CC2', '21.7 µM (inactive)'),
  ('O=C(/C=C/c1ccc(O)cc1)c1ccc(O)cc1 [4,4''-DIHYDROXYCHALCONE]', '43.7 µM (inactive)'),
  ('OC(CN(CCCl)CCCl)C(O)C(O)C(O)CN(CCCl)CCCl (stereo not given)', '> 100 µM (inactive)'),
  ('Cc1cc(N(CCC#N)CCC#N)ccc1C(/N=N/c1ccc([N+](=O)[O-])cc1)=N\NC(=O)c1ccccc1', '58.7 µM (inactive)'),
  ('CC(=O)NC(Cc1ccccc1)NC(=O)O (stereo not given)', '> 100 µM (inactive)'),
  ('COc1ccc(NC(=O)CC(=O)N2N=C(N(c3ccccc3)c3ccccc3)CC2c2ccccc2)cc1 (stereo not given)', '> 100 µM (inactive)');
